Test: NCI Yeast Anticancer Drug Screen. Data for the sgs1 mgt1 strain (AID 161)
Details: S. cerevisiae sgs1 mgt1 strain, at 50.0 µM
The panel holds about 79,000 compounds, 15% with a hit somewhere; the sample as a whole holds those more often. Activity calls are given as the source filed them. Cut-off read from the data, not from the text of the source: active = growth inhibition above about 70%; inactive = the rest.
Permitted responses: active, inactive

Please share the test call associated with CC(C)OC(=O)C1C=CCc2c(O)ccc(O)c21 (stereo not drawn) . inactive

Next record, please: COc1ccc(C2COc3c(ccc(O)c3O)C2)cc1 (stereo not drawn) active

Repeat for the following compound: O=S(=O)(ON=C1C=CC(=NOS(=O)(=O)c2ccccc2)C=C1)c1ccccc1 active

Next up: O=c1ccnc(Sc2ccc([N+](=O)[O-])cc2[N+](=O)[O-])[nH]1 active

Record: CCOc1ccccc1/C=N/Nc1nnc(N/N=C/c2ccccc2OCC)c2ccccc12 inactive

For COC(=O)/C(C#N)=C/c1cc(OC)c(O)cc1Br then? inactive

// next record CCCCCCCCCCCC[S+](C)C active

Next compound: CCOC(=O)C(=O)NNc1ccccc1 active

Next entry: COC(=O)c1c(C)cccc1C1CN=NC12Cc1ccccc1C2=O (stereo not drawn) inactive

Likewise for COCCn1cc(F)c(=O)[nH]c1=O ? inactive

Would you mind doing C=CS(=O)(=O)c1ccc(Cl)cc1 as well? active

Another compound to look at: COC(C(=O)C1=C2Oc3c4c(cc(O)c3C(=O)C2C2=C(CCCC2)C1=O)OC(C)(C)C=C4)C(C)CCC=C(C)C (stereo not drawn) active

// repeat for O=C(CSCc1c(F)cccc1Cl)Nc1ccc(F)c(Cl)c1 and report active
